- EXPERIMENT DESCRIPTION: BET inhibitor-based combinations targeting novel dependencies in MECOM-rearranged (r) AML: HNT-34 cell line (AID 2202234); further: nearly all actives have a fitted effect of over 35% in size
- TEST SETTINGS: HNT-34 AML viability, CellTiter-Glo luminescence, 48 h; series mostly up to 46 µM
Inconclusive results are not listed. Activity calls are given as the source filed them. The call rests on the fitted dose curve; in most records, active means well fitted inhibition curve with a large enough effect; inconclusive means small, poorly fitted or top-dose-only effect; inactive means no such curve, though single readings can be large or run the other way.
Labels: 1 for active, -1 for inactive

> print(dat)
                           structure.smiles  class.name
1  CC1(C)NC(=O)N(c2ccc([N+](=O)[O-])c(C(F)(F)F)c2)C1=O          -1
2  Cc1ccc(C(=O)Nc2ccc(CN3CCN(C)CC3)c(C(F)(F)F)c2)cc1C#Cc1cnc2cccnn12           1
3  CCCCOc1c(C(=O)c2c(F)cc(C)cc2F)cnc2n[nH]cc12           1
4                   Oc1c(Cl)cc(Cl)c2cccnc12           1
5  CC(C)c1ccc2c(c1)c(SC(C)(C)C)c(CC(C)(C)C(=O)O)n2Cc1ccc(Cl)cc1           1
